Below, each of the compounds is paired with its reported Hemolysis at 100 μg/ml value.
Tested on: human red blood cells (hRBC)
Assay type: cell-based
runConditions: red cells of human, 1 h
Where a SMILES comes first, the peptide text is derived from it. [ ]: non-standard residue; d: D form. Tle = CC(C)(C)[C@H](N)C(=O)O; dDab = NCC[C@@H](N)C(=O)O; Orn = NCCC[C@H](N)C(=O)O; Dab = NCC[C@H](N)C(=O)O
State the answer as a number, implicitly in %.

C[C@@H]1NC(=O)[C@H](C(C)(C)C)NC(=O)[C@H](CCN)NC(=O)[C@H](Cc2c[nH]c3ccccc23)NC(=O)[C@H](CCN)NC(=O)[C@@H](CCN)NC(=O)[C@H](CCCN)NC(=O)[C@H](CCN)NC(=O)[C@H](Cc2ccc(O)cc2)NC(=O)[C@H](Cc2c[nH]cn2)NC(=O)[C@H](Cc2c[nH]c3ccccc23)NC(=O)[C@@H]2CCCN2C(=O)[C@H]2CCCN2C(=O)[C@H](CO)NC1=O [compound 2] (cyclo(WHY[Dab][Orn][dDab][Dab]W[Dab][Tle]AS[dP]P)): 1

Turning now to a further record.
Form field: reported Hemolysis at 100 μg/ml of CC(C)C[C@@H]1NC(=O)[C@H](Cc2c[nH]c3ccccc23)NC(=O)[C@H](Cc2c[nH]c3ccccc23)NC(=O)[C@@H]2CCCN2C(=O)[C@H]2CCCN2C(=O)[C@H](C(C)C)NC(=O)[C@H](C)NC(=O)[C@H](C(C)C)NC(=O)[C@H](CCN)NC(=O)[C@H](Cc2c[nH]c3ccccc23)NC(=O)[C@H](CCN)NC(=O)[C@@H](CCN)NC(=O)[C@H](CCCN)NC(=O)[C@H](CCN)NC1=O [compound 13] (cyclo(WWL[Dab][Orn][dDab][Dab]W[Dab]VAV[dP]P)) 2
